Reported Human M4 Emin values follow for various molecules
EXPERIMENTAL TARGET: Human M4 (Homo sapiens)
Construct: expressed in transfected cells; host or cells: CHO-K1 (ATCC), stably co-transfected with Gqi5
Sequence (P08173 1-479): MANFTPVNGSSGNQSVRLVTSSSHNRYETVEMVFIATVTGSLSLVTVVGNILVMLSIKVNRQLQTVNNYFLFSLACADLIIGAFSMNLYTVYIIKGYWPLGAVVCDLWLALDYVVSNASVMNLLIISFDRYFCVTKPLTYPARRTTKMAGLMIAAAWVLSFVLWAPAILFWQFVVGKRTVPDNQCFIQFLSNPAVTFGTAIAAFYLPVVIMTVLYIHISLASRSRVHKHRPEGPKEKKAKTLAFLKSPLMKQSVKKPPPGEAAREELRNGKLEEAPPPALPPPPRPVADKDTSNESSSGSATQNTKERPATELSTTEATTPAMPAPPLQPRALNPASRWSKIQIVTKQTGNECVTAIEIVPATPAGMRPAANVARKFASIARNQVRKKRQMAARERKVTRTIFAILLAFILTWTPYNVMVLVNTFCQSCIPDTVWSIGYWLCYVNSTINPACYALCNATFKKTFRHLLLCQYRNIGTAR
TEST NAME: mAChR M4 cell-based functional assay (calcium flux, antagonism of EC80 acetylcholine response, M4/Gqi5/CHO-K1 cells)
ASSAY CONTEXT: % ACh maximum at 30 μM
METRIC NAME: Human M4 Emin

{"MOLECULE": "[2H]C([2H])([C@@H]1CCCOC1)N1C[C@H]2C[C@H](Nc3ccc(-c4cccnc4C(F)(F)F)nn3)C[C@H]2C1", "METRIC NAME": "Human M4 Emin", "MEASURED RESULT": "2%"}
{"MOLECULE": "[2H]C([2H])([C@H]1CCCCO1)N1C[C@H]2C[C@H](Nc3ccc(-c4cccnc4C(F)(F)F)nn3)C[C@H]2C1", "METRIC NAME": "Human M4 Emin", "MEASURED RESULT": "2%"}
{"MOLECULE": "[2H]C([2H])(C1CCOC(C)(C)C1)N1C[C@H]2C[C@H](Nc3ccc(-c4cnccc4C(F)(F)F)nn3)C[C@H]2C1 (single isomer, unassigned)", "METRIC NAME": "Human M4 Emin", "MEASURED RESULT": "3%"}
{"MOLECULE": "[2H]C1([2H])CC(C([2H])([2H])N2C[C@H]3C[C@H](Nc4nnc(-c5cnccc5C(F)(F)F)cc4OC)C[C@H]3C2)CC([2H])([2H])O1", "METRIC NAME": "Human M4 Emin", "MEASURED RESULT": "2%"}
{"MOLECULE": "[2H]C1([2H])CC(C([2H])([2H])N2C[C@H]3C[C@H](Nc4nnc(-c5cnccc5C(F)(F)F)cc4C)C[C@H]3C2)CC([2H])([2H])O1", "METRIC NAME": "Human M4 Emin", "MEASURED RESULT": "4%"}
